Quick reference for Minimum inhibition concentration (MIC) among some molecules
# Test system: VRE C6487
# method_notes: Anti-microbial activity test in vitro (agar dilution MIC)
# Assay type: cell-based, Enterococcus faecium
# condition_label: VRE C6487; Agar Dilution method, Mueller Hinton Agar, 18 hours at 37° C.
recorded_metric: Minimum inhibition concentration (MIC) (µg/mL)

[[record]]
molecule = "CC(=O)NC[C@H]1CN(c2ccc(N3CCC(=CC=O)CC3)c(F)c2)C(=O)O1 [Compound 17]"
recorded_metric = "Minimum inhibition concentration (MIC)"
quantitative_result = 8

[[record]]
molecule = "CC(=O)C=C1CCN(c2ccc(N3C[C@H](CNC(C)=O)OC3=O)cc2F)CC1 [Compound 12]"
recorded_metric = "Minimum inhibition concentration (MIC)"
quantitative_result = 2

[[record]]
molecule = "CC(=O)NC[C@H]1CN(c2ccc(N3CCC(=CC#N)CC3)c(F)c2)C(=O)O1 [Compound 8]"
recorded_metric = "Minimum inhibition concentration (MIC)"
quantitative_result = 4

[[record]]
molecule = "CCOC(=O)C(C#N)=C1CCN(c2ccc(N3C[C@H](CNC(C)=O)OC3=O)cc2F)CC1 [Compound 7]"
recorded_metric = "Minimum inhibition concentration (MIC)"
quantitative_result = 2

